Measured EC50 of individual entries
studyTarget: T1, recombinant human FcRn (human, UniProt P55899 24-297; P61769 21-119, limits assumed)
T1 construct: a beta-2-microglobulin chain is not mentioned; also called human recombinant FcRn
T1 sequence (P55899 24-297 limits assumed, chain 1 of 2): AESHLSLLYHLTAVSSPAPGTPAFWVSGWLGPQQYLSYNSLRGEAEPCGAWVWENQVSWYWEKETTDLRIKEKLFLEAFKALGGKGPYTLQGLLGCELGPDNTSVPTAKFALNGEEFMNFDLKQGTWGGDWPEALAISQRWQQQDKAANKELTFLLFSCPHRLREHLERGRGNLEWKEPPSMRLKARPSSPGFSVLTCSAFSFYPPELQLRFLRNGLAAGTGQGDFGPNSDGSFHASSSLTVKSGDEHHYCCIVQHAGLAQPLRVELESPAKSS
T1 sequence (P61769 21-119 limits assumed, chain 2 of 2): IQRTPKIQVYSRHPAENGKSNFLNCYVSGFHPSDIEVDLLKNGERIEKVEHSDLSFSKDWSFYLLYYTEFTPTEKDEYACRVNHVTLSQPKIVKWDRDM
testName: ELISA; recombinant human FcRn coated, serially diluted test article, anti-human (H+L)-HRP, 4PL fit; estimate, no saturating signal

Sample records with EC50:
human FLT3-ligand (Δ5 amino acid) human hingeless IgG1 fusion protein (SEQ ID NO:2) (Fc fusion, also called FLT3L ECD (Δ C-term 5aa (PTAPQ)) - hingeless hG1) TQDCSFQHSPISSDFAVKIRELSDYLLQDYPVTVASNLQDEELCGGLWRLVLAQRWMERLKTVAGSKMQGLLERVNTEIHFVTKCAFQPPPSCLRFVQTNISRLLQETSEQLVALKPWITRQNFSRCLELQCQPDSSTLPPPWSPRPLEATAGGPSVFLFPPKPKDTLMISRTPEVTCVVVDVSHEDPEVKFNWYVDGVEVHNAKTKPREEQYNSTYRVVSVLTVLHQDWLNGKEYKCKVSNKALPAPIEKTISKAKGQPREPQVYTLPPSREEMTKNQVSLTCLVKGFYPSDIAVEWESNGQPENNYKTTPPVLDSDGSFFLYSKLTVDKSRWQQGNVFSCSVMHEALHNHYTQKSLSLSPGK: ~300 nM
human FLT3-ligand human hingeless IgG1 fusion protein (SEQ ID NO:1) (Fc fusion, also called FLT3L ECD-hingeless hG1; hFLT3L ECD) TQDCSFQHSPISSDFAVKIRELSDYLLQDYPVTVASNLQDEELCGGLWRLVLAQRWMERLKTVAGSKMQGLLERVNTEIHFVTKCAFQPPPSCLRFVQTNISRLLQETSEQLVALKPWITRQNFSRCLELQCQPDSSTLPPPWSPRPLEATAPTAPQGGPSVFLFPPKPKDTLMISRTPEVTCVVVDVSHEDPEVKFNWYVDGVEVHNAKTKPREEQYNSTYRVVSVLTVLHQDWLNGKEYKCKVSNKALPAPIEKTISKAKGQPREPQVYTLPPSREEMTKNQVSLTCLVKGFYPSDIAVEWESNGQPENNYKTTPPVLDSDGSFFLYSKLTVDKSRWQQGNVFSCSVMHEALHNHYTQKSLSLSPGK: ~151 nM
human FLT3-ligand (Δ10 amino acid) human hingeless IgG1 fusion protein (SEQ ID NO:7) (Fc fusion) TQDCSFQHSPISSDFAVKIRELSDYLLQDYPVTVASNLQDEELCGGLWRLVLAQRWMERLKTVAGSKMQGLLERVNTEIHFVTKCAFQPPPSCLRFVQTNISRLLQETSEQLVALKPWITRQNFSRCLELQCQPDSSTLPPPWSPRPGGPSVFLFPPKPKDTLMISRTPEVTCVVVDVSHEDPEVKFNWYVDGVEVHNAKTKPREEQYNSTYRVVSVLTVLHQDWLNGKEYKCKVSNKALPAPIEKTISKAKGQPREPQVYTLPPSREEMTKNQVSLTCLVKGFYPSDIAVEWESNGQPENNYKTTPPVLDSDGSFFLYSKLTVDKSRWQQGNVFSCSVMHEALHNHYTQKSLSLSPGK: ~158 nM

// switching to the query binder
Please report the recorded EC50 for human FLT3-ligand (S128A/S151A) human hingeless IgG1 fusion protein (SEQ ID NO:5) (Fc fusion, also called Aglyco-FLT3L ECD (S128A/S151A) hingeless hG1) TQDCSFQHSPISSDFAVKIRELSDYLLQDYPVTVASNLQDEELCGGLWRLVLAQRWMERLKTVAGSKMQGLLERVNTEIHFVTKCAFQPPPSCLRFVQTNIARLLQETSEQLVALKPWITRQNFARCLELQCQPDSSTLPPPWSPRPLEATAPTAPQGGPSVFLFPPKPKDTLMISRTPEVTCVVVDVSHEDPEVKFNWYVDGVEVHNAKTKPREEQYNSTYRVVSVLTVLHQDWLNGKEYKCKVSNKALPAPIEKTISKAKGQPREPQVYTLPPSREEMTKNQVSLTCLVKGFYPSDIAVEWESNGQPENNYKTTPPVLDSDGSFFLYSKLTVDKSRWQQGNVFSCSVMHEALHNHYTQKSLSLSPGK .
~133 nM
